Please respond with reported screen value for every item in the list.
B1: S. cerevisiae Abp1 (full length; SH3 domain 535-592 mutated) / Hua2 (parent)
chain 1: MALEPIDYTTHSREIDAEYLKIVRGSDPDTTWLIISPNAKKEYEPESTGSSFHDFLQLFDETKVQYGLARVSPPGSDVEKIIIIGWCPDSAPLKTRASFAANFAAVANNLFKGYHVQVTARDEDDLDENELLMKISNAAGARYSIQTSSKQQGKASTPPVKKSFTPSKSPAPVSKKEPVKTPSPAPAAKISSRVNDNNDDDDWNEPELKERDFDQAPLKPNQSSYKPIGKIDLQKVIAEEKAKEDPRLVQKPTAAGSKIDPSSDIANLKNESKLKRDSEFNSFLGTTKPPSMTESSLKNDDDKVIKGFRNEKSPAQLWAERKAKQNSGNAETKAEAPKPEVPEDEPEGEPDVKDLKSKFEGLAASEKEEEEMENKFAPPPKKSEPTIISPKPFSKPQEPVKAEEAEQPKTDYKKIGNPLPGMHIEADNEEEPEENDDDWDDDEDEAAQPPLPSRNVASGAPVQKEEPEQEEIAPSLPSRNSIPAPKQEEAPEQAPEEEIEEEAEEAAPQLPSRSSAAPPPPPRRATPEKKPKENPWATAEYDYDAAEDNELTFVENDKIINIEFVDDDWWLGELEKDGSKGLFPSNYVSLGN
chain 2: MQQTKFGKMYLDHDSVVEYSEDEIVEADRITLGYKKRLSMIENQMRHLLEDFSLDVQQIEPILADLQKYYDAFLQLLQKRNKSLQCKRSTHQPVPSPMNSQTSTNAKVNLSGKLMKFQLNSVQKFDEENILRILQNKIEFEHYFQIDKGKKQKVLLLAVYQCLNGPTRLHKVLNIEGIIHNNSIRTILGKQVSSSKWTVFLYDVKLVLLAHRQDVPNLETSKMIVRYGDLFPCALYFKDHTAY

- Variants of: B1
- METHOD NOTES: DHFR protein-fragment complementation in yeast (Abp1-DHFR F[1,2] x partner-DHFR F[3]), deep mutational scanning, second methotrexate selection vs reference
- CONDITIONS USED: with Hua2; S. cerevisiae, DHFR-PCA selection in liquid with methotrexate at 30 C, two 72 h selections (the score uses the second); reference = the pre-selection culture; not an affinity; value at the no-binding floor (a bound); scale: DMS score: mean over two replicates of log2(f_test/f_ref + 0.5)/ln 2, minus the synonymous-codon median

Examples from the recorded data:
MUT: chain 1 I559W
MEASURED QUANTITY: screen value
RESULT: < -3.06
--
MUT: chain 1 E540P
MEASURED QUANTITY: screen value
RESULT: -3
--
MUT: chain 1 E547P
MEASURED QUANTITY: screen value
RESULT: < -3.06
--
MUT: chain 1 I559P
MEASURED QUANTITY: screen value
RESULT: < -3.06

Fill in screen value for each of the 6 variants listed.
1. chain 1 F583K
2. chain 1 E550C
3. chain 1 E550N
4. chain 1 W570T
5. chain 1 G581M
6. chain 1 N561W

A.
["< -3.06", "< -3.06", "< -3.06", "< -3.06", "< -3.06", "< -3.06"]

Fill in screen value for each of the 5 variants listed.
1. chain 1 A537M
2. chain 1 A539I
3. chain 1 F553T
4. chain 1 L582G
5. chain 1 F583Q

A.
< -3.06
-3.01
-3.01
-3
< -3.06

Fill in screen value for each of the 2 variants listed.
1. chain 1 W570I
2. chain 1 G581W

A.
["< -3.06", "< -3.06"]
